# Subject Of Test: T1, minipig PDGF (minipig)
# T1 construct: Printed only as minipig PDGF; also called Minpig PDGF
# T1 sequence (P20034 whole entry, looked up): SLGSPAVAEPAVIAE
# Assay Explanation: SPR, Fab fragment; assay format for PDGF not described
Quantity Kind: pKd
Convention used: pKd is expressed as -log10 of the molar concentration.

Sample answers from the record:
* bispecific anti-VEGF/anti-PDGF-B Fab fragment RO7113083 (Fab, V domains shown, also called R07113083) VH: DLQLVESGGGLVKPGGSLRLSCAADGWWFGYTDMSWVRQAPGKGLEWVGSISYKGGSTYYNTKFIGRFTISRDDDTNTLYLQMNSLRAEDTAVYYCARDDGYFDTWGQGTLVTVSS VL: AIYMHQEPSSLSASVGDRVTITCHGSYWLSNYLAWYQQKPGKAPKLLIYDGKEREHGVPSRFSGSGSHEDYTLTISSLQPEDFATYYCQQYRYHPYTFGHGTKVEIKR | 9.52
* bispecific anti-VEGF/anti-PDGF-B Fab fragment P1AA9124 (Fab, V domains shown) VH: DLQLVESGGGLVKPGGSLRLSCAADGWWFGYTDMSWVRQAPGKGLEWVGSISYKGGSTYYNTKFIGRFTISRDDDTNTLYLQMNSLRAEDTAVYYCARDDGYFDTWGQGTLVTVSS VL: AIQMTQSPSSLSASVGDRVTITCHGSYWLSNYLAWYQQKPGKAPKLLIYDGKEREHGVPSRFSGSGSHEDYTLTISSLQPEDFATYYCQQYRYHPYTFGQGTKLEIKR | 9.40
* bispecific anti-VEGF/anti-PDGF-B Fab fragment 28.01 (Fab, V domains shown) VH: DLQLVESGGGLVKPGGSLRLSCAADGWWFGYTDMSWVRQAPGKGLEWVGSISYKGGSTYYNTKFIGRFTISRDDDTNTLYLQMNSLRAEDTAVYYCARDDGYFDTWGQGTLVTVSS VL: AIHMYQEPSSLSASVGDRVTITCHGSYWLSNYLAWYQQKPGKAPKLLIYDGKEREHGVPSRFSGSGSHEDYTLTISSLQPEDFATYYCQQYRYHPYTFGHGTKVEIKR | 9.52

Now for a further binder.
GET /value?item= bispecific anti-VEGF/anti-PDGF-B Fab fragment 28.07 (Fab, V domains shown) VH: DLQLVESGGGLVKPGGSLRLSCAADGWWFGYTDMSWVRQAPGKGLEWVGSISYKGGHKYLNTKFIGRFTISRDDDTNTLYLQMNSLRAEDTAVYYCARDDGYFDTWGQGTLVTVSS VL: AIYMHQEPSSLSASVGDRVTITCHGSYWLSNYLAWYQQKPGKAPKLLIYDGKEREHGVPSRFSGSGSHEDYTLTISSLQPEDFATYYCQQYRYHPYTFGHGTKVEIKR &field=pKd returns 9.52
